# runDescription: Metabolic stability of N-(3-[^18 F]fluoropropyl)spiroperidol in mouse brains
# Assay type: in vivo, female albino mice (BNL strain)
# conditionDescription: mouse, brain, iv, 1 hr, MeOH Alone, read-out: Percent of Unchanged N-(3-[^18 F]fluoropropyl)spiroperidol
# Procedure: Metabolic Stability of N-(3-[^18 F]fluoropropyl)spiroperidol in Mouse Brains Three female albino mice (BNL strain), 27-30 g, were injected in a lateral tail vein with […] of N-(3-[^18 F]fluoropropyl)spiroperidol in 100 μl of isotonic saline solution. At 1 hr after injection, the mice were killed by cervical dislocation. The brain was rapidly removed, homogenized either in a mixture of 2 ml of CH3 OH and 4 ml of 0.4M HClO4, or in 2 ml of CH3 OH alone. […]
parameter: remaining at 1 h

Query: # return recorded remaining at 1 h for entry O=C(CCCN1CCC2(CC1)C(=O)N(CCC[18F])CN2c1ccccc1)c1ccc(F)cc1 [N-(3-[^18 F]fluoropropyl)spiroperidol]
Response: 62%
